Target: MAO-A (amine oxidase [flavin-containing] A) (Homo sapiens, UniProt P21397)
Sequence (P21397 whole entry): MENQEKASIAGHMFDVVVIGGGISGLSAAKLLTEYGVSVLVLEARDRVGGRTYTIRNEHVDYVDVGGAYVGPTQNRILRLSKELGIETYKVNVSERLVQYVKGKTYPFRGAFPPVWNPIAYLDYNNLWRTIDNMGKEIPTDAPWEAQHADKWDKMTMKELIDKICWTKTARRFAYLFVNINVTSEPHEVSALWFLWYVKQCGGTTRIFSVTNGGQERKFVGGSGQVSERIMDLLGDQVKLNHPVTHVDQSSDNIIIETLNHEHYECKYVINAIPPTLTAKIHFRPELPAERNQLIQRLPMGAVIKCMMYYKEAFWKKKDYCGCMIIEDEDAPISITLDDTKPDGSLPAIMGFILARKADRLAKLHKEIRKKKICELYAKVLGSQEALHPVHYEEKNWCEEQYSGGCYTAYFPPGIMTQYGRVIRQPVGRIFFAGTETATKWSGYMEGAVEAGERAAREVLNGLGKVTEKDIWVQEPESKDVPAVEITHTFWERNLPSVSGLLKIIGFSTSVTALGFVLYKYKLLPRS
Assay: Agonist activity in the Eurofins Cerep SafetyScreen44 (BI) against MAO-A_ANTAG by Scintillation counting (Cerep_443)
Parameters: scale not given: the % may be the effect or the level left
Settings: rat; compound concentration 10 uM; target entry is the homologue from another species; read-out: % Ctrl
Measured parameter: activity at 10 µM

Consider the compound CC(C)(O)CNC(=O)N1C(=O)N(c2cccc(C(F)(F)F)c2)C2=C(C(=O)CC2)[C@@H]1c1ccc(C#N)cc1 tested on MAO-A (amine oxidase [flavin-containing] A) (Homo sapiens, UniProt P21397); state its activity at 10 µM.
101% (not active)
